Subject Of Test: Trypsin, from human pancreas (Homo sapiens)
Where a SMILES comes first, the peptide text is derived from it.
Readout Name: Trypsin at 100 μM % (%)
Write the value in % as a bare number.

QUERY: Enter recorded Trypsin at 100 μM % with Trypsin, from human pancreas (Homo sapiens) for CC[C@H](C)[C@@H]1NC(=O)[C@@H]2CCCN2C(=O)[C@@H]2CCCN2C(=O)[C@H](CCC(=O)O)NC(=O)[C@H](CO)NC(=O)[C@H](CCCCN)NC(=O)[C@H]([C@@H](C)O)NC(=O)[C@@H]2CSSC[C@H](NC1=O)C(=O)N[C@@H](CO)C(=O)N1CCC[C@@H]1C(=O)N1CCC[C@H]1C(=O)N[C@@H](Cc1ccccc1)C(=O)N2 [Ex. 21] (HELM PEPTIDE1{F.C.T.K.S.E.P.P.I.C.S.[dP].P}$PEPTIDE1,PEPTIDE1,2:R3-10:R3|PEPTIDE1,PEPTIDE1,1:R1-13:R2$$$V2.0) here.
RESULT: 95.6

* * *

# Chymotrypsin at 100 μM % per entry
Subject Of Test: Chymotrypsin, from human pancreas (Homo sapiens)
Sequence (P17538 19-263): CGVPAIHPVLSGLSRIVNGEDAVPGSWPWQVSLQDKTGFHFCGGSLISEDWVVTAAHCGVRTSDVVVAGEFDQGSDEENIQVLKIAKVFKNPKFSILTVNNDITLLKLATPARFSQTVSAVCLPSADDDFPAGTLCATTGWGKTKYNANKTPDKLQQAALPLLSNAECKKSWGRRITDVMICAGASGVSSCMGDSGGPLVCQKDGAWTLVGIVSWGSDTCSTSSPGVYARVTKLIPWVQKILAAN
Assay Procedure: Enzymatic assay, chymotrypsin
Condition Label: at 100 μM
Where a SMILES comes first, the peptide text is derived from it.
Write the value in % as a bare number.

QUERY: Supply measured Chymotrypsin at 100 μM % of CCCC[C@@H]1NC(=O)[C@@H]2CCCN2C(=O)[C@@H]2CCCN2C(=O)[C@H](CC(=O)O)NC(=O)[C@H](CO)NC(=O)[C@H](CCCCN)NC(=O)[C@H]([C@@H](C)O)NC(=O)[C@@H]2CSSC[C@H](NC1=O)C(=O)N[C@@H](CO)C(=O)N1CCC[C@@H]1C(=O)N1CCC[C@H]1C(=O)N[C@@H](Cc1ccccc1)C(=O)N2 [Ex. 53] (HELM PEPTIDE1{F.C.T.K.S.D.P.P.[Nle].C.S.[dP].P}$PEPTIDE1,PEPTIDE1,2:R3-10:R3|PEPTIDE1,PEPTIDE1,1:R1-13:R2$$$V2.0) in your reply.
RESULT: 54

We next turn to a different compound, shown below.
QUERY: Supply measured Chymotrypsin at 100 μM % of CCCC[C@@H]1NC(=O)[C@H]([C@@H](C)O)NC(=O)[C@@H]2CSSC[C@H](NC(=O)[C@H]([C@@H](C)CC)NC(=O)[C@@H]3CCCN3C(=O)[C@@H]3CCCN3C(=O)[C@H](CC(=O)O)NC(=O)[C@H](CO)NC1=O)C(=O)N[C@@H](CCCNC(=N)N)C(=O)N1CCC[C@@H]1C(=O)N1CCC[C@H]1C(=O)N[C@@H]([C@@H](C)CC)C(=O)N2 [Ex. 59] (HELM PEPTIDE1{I.C.T.[Nle].S.D.P.P.I.C.R.[dP].P}$PEPTIDE1,PEPTIDE1,2:R3-10:R3|PEPTIDE1,PEPTIDE1,1:R1-13:R2$$$V2.0) in your reply.
RESULT: 0

* * *

Subject Of Test: Chymase, from human skin (Homo sapiens, UniProt P23946)
Sequence (P23946 22-247): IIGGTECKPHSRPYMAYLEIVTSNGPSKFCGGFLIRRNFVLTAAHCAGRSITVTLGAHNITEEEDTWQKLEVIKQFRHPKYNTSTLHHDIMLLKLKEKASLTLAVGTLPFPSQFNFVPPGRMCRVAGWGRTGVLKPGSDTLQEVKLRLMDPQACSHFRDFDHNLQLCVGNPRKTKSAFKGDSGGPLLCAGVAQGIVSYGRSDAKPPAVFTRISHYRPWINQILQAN
Where a SMILES comes first, the peptide text is derived from it.
Readout Name: Chymase at 100 μM %

QUERY: Supply measured Chymase at 100 μM % of CCCC[C@@H]1NC(=O)[C@H]([C@@H](C)O)NC(=O)[C@@H]2CSSC[C@H](NC(=O)[C@H]([C@@H](C)CC)NC(=O)[C@@H]3CCCN3C(=O)[C@@H]3CCCN3C(=O)[C@H](CC(=O)O)NC(=O)[C@H](CO)NC1=O)C(=O)N[C@@H](CCCNC(=N)N)C(=O)N1CCC[C@@H]1C(=O)N1CCC[C@H]1C(=O)N[C@@H]([C@@H](C)CC)C(=O)N2 [Ex. 22] (HELM PEPTIDE1{I.C.T.[Nle].S.D.P.P.I.C.R.[dP].P}$PEPTIDE1,PEPTIDE1,2:R3-10:R3|PEPTIDE1,PEPTIDE1,1:R1-13:R2$$$V2.0) in your reply.
RESULT: 98.8%
